- procedure text: Growth inhibition of human LO2 cells at 10 uM after 24 hrs by MTS assay relative to control
- Type: cell-based, L02
- cond: LO2 cells, read-out: GI
Each item that follows carries a reported inhibition at 24 h, 10 µM.
Output spec: scalar in %, unitless text.

Below, each entry is followed by its recorded inhibition at 24 h, 10 µM result.
Value of inhibition at 24 h, 10 µM reported for the compound `COc1c(/C=C/C(=O)c2ccc(O)c(O)c2)ccc(O)c1CC=C(C)C` is 9

Value of inhibition at 24 h, 10 µM reported for the compound `CC(C)=CCc1cc([C@@H]2CC(=O)c3c(O)cc(O)c(CC=C(C)C)c3O2)ccc1O` is 12

Value of inhibition at 24 h, 10 µM reported for the compound `CC(C)=CCc1cc(/C=C/C(=O)c2ccc(O)cc2O)ccc1O` is 3

Value of inhibition at 24 h, 10 µM reported for the compound `CC(C)=CCc1c(O)ccc(-c2coc3c(CC=C(C)C)c(O)cc(O)c3c2=O)c1O` is 20

Value of inhibition at 24 h, 10 µM reported for the compound `CC(C)=CCc1c(O)ccc([C@H]2COc3cc(O)c(CC=C(C)C)c(O)c3C2=O)c1O` is 0

Further cases:
Value of inhibition at 24 h, 10 µM reported for the compound `CC(C)=CCc1c(O)cc2occ(-c3cc(O)c4c(c3)C=CC(C)(C)O4)c(=O)c2c1O` is 5

Value of inhibition at 24 h, 10 µM reported for the compound `CC1(C)C=Cc2c(ccc3c2OC[C@@H](c2ccc(O)cc2O)C3)O1` is 3

Value of inhibition at 24 h, 10 µM reported for the compound `CC1(C)C=Cc2c(O)ccc(-c3coc4cc(O)cc(O)c4c3=O)c2O1` is 24

Value of inhibition at 24 h, 10 µM reported for the compound `CC(C)=CCc1cc(-c2cc(=O)c3c(O)c(CC=C(C)C)c(O)cc3o2)ccc1O` is 33

Value of inhibition at 24 h, 10 µM reported for the compound `CC(C)=CCc1c(O)ccc2c1O[C@H](c1ccc3c(c1)C=CC(C)(C)O3)CC2=O` is 2

Value of inhibition at 24 h, 10 µM reported for the compound `CC(C)=CCc1c(O)cc2occ(-c3ccc4c(c3O)C=CC(C)(C)O4)c(=O)c2c1O` is 16

Value of inhibition at 24 h, 10 µM reported for the compound `CC(C)=CCc1cc(/C=C/C(=O)c2ccc(O)c(CC=C(C)C)c2O)ccc1O` is 34

Value of inhibition at 24 h, 10 µM reported for the compound `C=CC(C)(C)c1cc(/C=C/C(=O)c2ccc(O)cc2)c(OC)c(O)c1O` is 5

Value of inhibition at 24 h, 10 µM reported for the compound `CC1(C)C=Cc2cc(/C=C/C(=O)c3ccc(O)cc3O)ccc2O1` is 5

Value of inhibition at 24 h, 10 µM reported for the compound `COc1c(/C=C/C(=O)c2ccc(O)cc2)ccc(O)c1O` is 6

Value of inhibition at 24 h, 10 µM reported for the compound `CC(C)=CCc1c(O)c(CC=C(C)C)c2oc(-c3ccc(O)cc3)cc(=O)c2c1O` is 46

Value of inhibition at 24 h, 10 µM reported for the compound `C=CC(C)(C)c1cc(/C=C/C(=O)c2ccc(O)cc2)c(OC)cc1O` is 16

Value of inhibition at 24 h, 10 µM reported for the compound `CC(C)=CCc1c(O)c(CC=C(C)C)c2occ(-c3ccc(O)cc3)c(=O)c2c1O` is 12

Value of inhibition at 24 h, 10 µM reported for the compound `CC1(C)C=Cc2c(ccc(-c3cc4ccc(O)cc4o3)c2O)O1` is 4

Value of inhibition at 24 h, 10 µM reported for the compound `CC1(C)C=Cc2c(cc3occ(-c4ccc(O)cc4)c(=O)c3c2O)O1` is 5

Value of inhibition at 24 h, 10 µM reported for the compound `C=C(C)[C@H](C)c1cc(/C=C/C(=O)c2ccc(O)cc2)c(OC)cc1O` is 22
